assay: Cell Viability - LYMP1-003 - Assay at 40 hr (AID 964); conditions: LYMP1-003 lymphoblastoid viability; series mostly up to 92.2 µM; also: % is scaled to controls: 0 for no effect and ±100 for the full control effect; nearly all actives have a fitted effect of over 60% in size
Records with an inconclusive call do not appear. The source made the active and inactive calls. Calls follow the shape of the dose curve; as a rule, active = well fitted cell-killing curve with a large enough effect; inconclusive = small, poorly fitted or top-dose-only effect; inactive = flat fitted curve, though single readings scatter.
Pick one: true (active), false (inactive)

>>> classlabel("C=CC1CO1 (configuration not stated)")
"false"

Exercise: Which outcome did this test record for the compound "Nc1cc(C(=O)O)c(O)c(S(=O)(=O)O)c1" ?
Solution: false

Exercise: Which outcome did this test record for the compound "Nc1ccc(-c2ccc(N)c(O)c2)cc1O" ?
Solution: false

Exercise: Which outcome did this test record for the compound "Nc1cnn([C@@H]2O[C@H](CO)[C@@H](O)[C@H]2O)c(=O)n1" ?
Solution: false

Exercise: Which outcome did this test record for the compound "c1c[nH]cn1" ?
Solution: false

Exercise: Which outcome did this test record for the compound "CN(C)c1ccc(Cc2ccc(N(C)C)cc2)cc1" ?
Solution: false

Exercise: Which outcome did this test record for the compound "CC(/C=C/C=C(C)/C=C/C(=O)O)=C\C=C\C=C(C)\C=C\C=C(C)\C=C\C(=O)O" ?
Solution: false

Exercise: Which outcome did this test record for the compound CCOC(=O)C1OC1c1ccccc1 (configuration not stated) ?
Solution: false

Exercise: Which outcome did this test record for the compound "O=C1OC(=O)c2ccccc21" ?
Solution: false

Exercise: Which outcome did this test record for the compound "Cc1ccc(S(N)(=O)=O)cc1" ?
Solution: false

Exercise: Which outcome did this test record for the compound "Cc1ccc2ccc3cccc4ccc1c2c34" ?
Solution: false

====

experiment: AP1 Signaling Pathway (AID 357); details: ME-180 (cervical carcinoma) AP-1-bla reporter, EGF-induced, beta-lactamase ratio, 5 h; at 7.69 µM (top of the series) unless noted;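 also: ME-180 reporter cells stimulated with EGF at its EC50 level; % is scaled to controls: 0 for no effect and ±100 for the full control effect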
Inconclusive results are not listed. The source made the active and inactive calls. The call rests on the fitted dose curve; in most records, active means well fitted curve in either direction with a large enough effect (not every such curve was filed as active); inconclusive means small, poorly fitted or top-dose-only effect, or another doubt; inactive means flat fitted curve, though single readings scatter.
measurementKind: activity change, negative = inhibition

Example entries and their recorded answers appear below.
>>> val("C#C[C@H](N)CCC(=O)O")
"2.59% [at 38 µM] (inactive)"
>>> val("CC(C)CSC[C@@H]1O[C@H](n2cnc3c(N)nccc32)[C@H](O)[C@@H]1O")
"4.75% (inactive)"
>>> val("CCC(=O)[C@@H](c1ccccc1)c1ccccn1")
"10.3% (inactive)"
>>> val("CC1=NN(c2ccccc2)C(=O)[C@@H]1N=Nc1ccc(S(N)(=O)=O)cc1")
"6.08% (inactive)"
>>> val("Cc1cc(O)c(C(C)C)cc1NC(=O)Nc1cccc2ccccc12")
"-27.4% (inactive)"

Exercise: Give the reported value of activity change, negative = inhibition for this record: "C[n+]1cccc(/C=C\c2ccc3cccc(O)c3n2)c1"
Solution: -0.115% (inactive)

Exercise: Give the reported value of activity change, negative = inhibition for this record: "CN(C)Cc1c[nH]c2nc[nH]c(=O)c12"
Solution: 1.16% (inactive)

Exercise: Give the reported value of activity change, negative = inhibition for this record: "Cc1nc2cccc([N+](=O)[O-])c2n1CCCN(C)C"
Solution: 11.7% (inactive)

Exercise: Give the reported value of activity change, negative = inhibition for this record: "CCC(=O)OCN1C(=O)C=CC1=O"
Solution: -2.18% (inactive)

Exercise: Give the reported value of activity change, negative = inhibition for this record: "CN(C)Cc1cc(C(C)(C)C)ccc1-c1ccc(C(C)(C)C)cc1CN(C)C"
Solution: 4.9% (inactive)

Exercise: Give the reported value of activity change, negative = inhibition for this record: "O=C(O)[C@@H](c1ccccc1)[C@@H](C(=O)O)c1ccccc1"
Solution: 3.89% (inactive)

Exercise: Give the reported value of activity change, negative = inhibition for this record: "CC(C)CO[C@H](c1ccc2c(c1)OCO2)[C@H](C)Br"
Solution: -13.4% (inactive)

Provenance of the data: PubChem BioAssay (NCATS)
